- Test system: hypercholesterolaemic, insulin resistant conscious rabbits
- assayOverview: Ventricular pacing-induced myocardial ischaemia (ST-segment elevation), hypercholesterolaemic rabbits
- Assay type: in vivo, New Zealand white rabbits
- cond: hypercholesterolaemic, insulin resistant rabbits, drug alone
assayReadout: intracavitary ST-segment elevation / ischaemic changes produced by VOP

1) CN(C)C(=N)N=C(N)N [Metformin, metformine]: without effect
2) COc1ccc(Cl)cc1C(=O)NCCc1ccc(S(=O)(=O)NC(=O)NC2CCCCC2)cc1 [Glibenclamide, glibenclamide]: without effect

----------
- System: streptozotocin diabetic rabbits
- assayOverview: Femoral nerve conduction velocity, streptozotocin diabetes
- Assay type: in vivo, New Zealand white rabbits
- cond: femoral “C” fibers, streptozotocin diabetic rabbit, with active patch (nitroglycerin 0.07 mg/kg/h), alone (Control) or with the drug
Listed next: entries and their corresponding Nerve conduction velocity.
assayReadout: Nerve conduction velocity (dm/s)

1) Cc1c(C)c2c(c(C)c1O)CCC(C)(COc1ccc(CC3SC(=O)NC3=O)cc1)O2 (centres unmarked) [Troglitazon, troglitazone]: 3.6
2) O=[N+]([O-])OCC(CO[N+](=O)[O-])O[N+](=O)[O-] [Nitroglycerin, nitroglycerin]: 3.6
3) CN(C)C(=N)N=C(N)N [Metformin, metformine]: 3.6
4) c1ccc2c(c1)OCC(C1=NCCN1)O2 (centres unmarked) [Idazoxan, idazoxane]: 3.4
5) COc1ccc(Cl)cc1C(=O)NCCc1ccc(S(=O)(=O)NC(=O)NC2CCCCC2)cc1 [Glibenclamide, glibenclamide]: 3.6

----------
Listed next: entries and their corresponding Glucose infusion rate.
- Tested on: hypercholesterolaemic, insulin resistant conscious rabbits
- assayOverview: Hyperinsulinaemic euglycaemic glucose clamping (insulin sensitivity), hypercholesterolaemic rabbits
- Format: in vivo, New Zealand white rabbits
- cond: hypercholesterolaemic, insulin resistant rabbit, placebo patch; troglitazon 70 mg/kg p.os, metformin 5 mg/kg i.v., glibenclamide 1 mg/kg i.v., idazoxan 2 mg/kg i.v.
assayReadout: Glucose infusion rate (mg/kg/min)

1) COc1ccc(Cl)cc1C(=O)NCCc1ccc(S(=O)(=O)NC(=O)NC2CCCCC2)cc1 [Glibenclamide, glibenclamide]: 8.833
2) c1ccc2c(c1)OCC(C1=NCCN1)O2 (stereo not shown) [Idazoxan, idazoxane]: 8.500
3) Cc1c(C)c2c(c(C)c1O)CCC(C)(COc1ccc(CC3SC(=O)NC3=O)cc1)O2 (stereo not shown) [Troglitazon, troglitazone]: 11.000
4) CN(C)C(=N)N=C(N)N [Metformin, metformine]: 10.833

The origin of these recorded values is patent US20040068005A1.
